Attribute: IC50
# test-target: T1, human RAGE-Fc fusion protein (human, UniProt Q15109 23-344)
# T1 construct: also called hRAGE-Fc; huRAGE-Fc; not shown: Fc domain of human IgG
# test-protocol: competition ELISA on coated hRAGE-Fc; competitor 12.5 ng/ml biotinylated rat XT-M4

- humanized XT-M4 hVH-V2.0 / hVL-V2.10 (antibody, human IgG1, V domains shown) VH: EVQLVESGGGLVQPGGSLRLSCAASGFTFNNYWMTWVRQAPGKGLEWVASIDNSGDNTYYPDSVKDRFTISRDNAKNSLYLQMNSLRAEDTAVYYCARGGDITTGFDYWGQGTLVTVSS VL: DIQMTQSPSSLSASVGDRVTITCRASQDVGIYVNWFQQKPGKAPKRLIYRATNLADGVPSRFSGSGSGTDFTLTISSLQPEDFATYYCLEFDEHPLTFGGGTKVEIK: 0.95 µg/mL
- humanized XT-M4 hVH-V1.0 / hVL-V2.7 (antibody, human IgG1, V domains shown) VH: EVQLVESGGGLVQPGGSLRLSCAASGFTFNNYWMTWVRQAPGKGLEWVASINNSGDNTYYPDSVKDRFTISRDNAKNSLYLQMNSLRSEDTAVYYCARGGDITTGFDYWGQGTLVTVSS VL: DIQMTQSPSSLSASVGDRVTITCRASQDVGIYVNWYQQKPGKAPKRLIYRATNLADGVPSRFSGSGSGTDFTLTISSLQPEDFATYYCLEFDEHPLTFGGGTKVEIK: 4 to 9.5 µg/mL
- humanized XT-M4 hVH-V2.0 / hVL-V2.14 (antibody, human IgG1, V domains shown) VH: EVQLVESGGGLVQPGGSLRLSCAASGFTFNNYWMTWVRQAPGKGLEWVASIDNSGDNTYYPDSVKDRFTISRDNAKNSLYLQMNSLRAEDTAVYYCARGGDITTGFDYWGQGTLVTVSS VL: DIQMTQSPSSLSASVGDRVTITCRASQDVGIYVNWFQQKPGKAPKRLIYRATNLADGVPSRFSGSRSGTDFTLTISSLQPEDFATYYCLEFDEHPLTFGGGTKVEIK: 0.2 µg/mL

What does the record list as IC50 for humanized XT-M4 hVH-V2.0 / hVL-V2.4 (antibody, human IgG1, V domains shown) VH: EVQLVESGGGLVQPGGSLRLSCAASGFTFNNYWMTWVRQAPGKGLEWVASIDNSGDNTYYPDSVKDRFTISRDNAKNSLYLQMNSLRAEDTAVYYCARGGDITTGFDYWGQGTLVTVSS VL: DIQMTQSPSSLSASVGDRVTITCRASQDVGIYVNWYQQKPGKAPKLLIYRATNLADGVPSRFSGSRSGTDFTLTISSLQPEDFATYYCLEFDEHPLTFGGGTKVEIK ?
2.9 µg/mL

Tell me the measured IC50 of humanized XT-M4 hVH-V1.0 / hVL-V2.4 (antibody, human IgG1, V domains shown) VH: EVQLVESGGGLVQPGGSLRLSCAASGFTFNNYWMTWVRQAPGKGLEWVASINNSGDNTYYPDSVKDRFTISRDNAKNSLYLQMNSLRSEDTAVYYCARGGDITTGFDYWGQGTLVTVSS VL: DIQMTQSPSSLSASVGDRVTITCRASQDVGIYVNWYQQKPGKAPKLLIYRATNLADGVPSRFSGSRSGTDFTLTISSLQPEDFATYYCLEFDEHPLTFGGGTKVEIK , please.
4.5 to 8.5 µg/mL
